B1: Protein S100-G, residues 1 to 79; numbered along this chain, P02633 (parent)
chain: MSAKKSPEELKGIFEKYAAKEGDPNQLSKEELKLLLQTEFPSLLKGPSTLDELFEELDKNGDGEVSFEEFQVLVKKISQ

# Variants of: B1
# measurement notes: abundance fitness (aPCA) (normalised: wild type 0, dead -1); higher = more abundant; growth selection in yeast, the domain comes from the species named
# particulars: Bos taurus
measured property: abundance fitness
Keep it simple and answer with nothing but the number.

S6K: -0.204
T38C: -0.034
T49D: -0.08
K5P: -0.253
L53V: 0.028
K75I: -0.167
D58Y: -0.008
P41W: -0.115
L44G: -0.047
A3H: -0.049

Lab note: "P24D" gave abundance fitness of -0.125

Lab note: "E55P" gave abundance fitness of 0.012

Lab note: "E9T" gave abundance fitness of -0.073

Lab note: "Q71L" gave abundance fitness of 0.031
